- assay target: human TLR9 (Homo sapiens, UniProt Q9NR96)
- Sequence (Q9NR96 26-1032): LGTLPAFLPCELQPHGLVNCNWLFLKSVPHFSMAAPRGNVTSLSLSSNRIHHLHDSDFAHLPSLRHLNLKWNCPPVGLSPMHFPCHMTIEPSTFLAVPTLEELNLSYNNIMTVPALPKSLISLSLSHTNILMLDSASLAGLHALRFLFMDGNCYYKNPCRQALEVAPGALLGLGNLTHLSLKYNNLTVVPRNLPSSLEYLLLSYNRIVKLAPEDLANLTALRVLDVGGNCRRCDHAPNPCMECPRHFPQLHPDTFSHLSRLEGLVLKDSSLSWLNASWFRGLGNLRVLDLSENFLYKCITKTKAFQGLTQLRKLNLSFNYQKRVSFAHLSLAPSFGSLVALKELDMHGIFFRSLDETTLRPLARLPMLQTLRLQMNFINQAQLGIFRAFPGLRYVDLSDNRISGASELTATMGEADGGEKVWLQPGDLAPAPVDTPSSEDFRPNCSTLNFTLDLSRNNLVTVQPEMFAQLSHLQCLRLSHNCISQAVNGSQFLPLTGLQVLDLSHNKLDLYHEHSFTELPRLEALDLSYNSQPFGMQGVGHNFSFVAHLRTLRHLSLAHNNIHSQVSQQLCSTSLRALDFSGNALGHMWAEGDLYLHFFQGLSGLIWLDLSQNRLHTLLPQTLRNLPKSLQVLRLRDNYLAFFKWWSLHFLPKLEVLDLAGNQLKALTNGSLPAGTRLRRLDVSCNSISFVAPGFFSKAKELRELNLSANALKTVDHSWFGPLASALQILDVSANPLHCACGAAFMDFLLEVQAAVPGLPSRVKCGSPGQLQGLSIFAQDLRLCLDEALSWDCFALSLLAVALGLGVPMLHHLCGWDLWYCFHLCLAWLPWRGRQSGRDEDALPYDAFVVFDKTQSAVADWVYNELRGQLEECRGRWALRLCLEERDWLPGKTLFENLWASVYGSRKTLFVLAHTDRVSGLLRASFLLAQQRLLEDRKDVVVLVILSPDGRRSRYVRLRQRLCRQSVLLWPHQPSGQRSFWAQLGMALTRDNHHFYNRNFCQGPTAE
- assay method text: TLR9 inhibition reporter assay (HEK-Blue SEAP)
- measurement context: HEK-Blue cells overexpressing human TLR9, stimulated with ODN2006 5 nM, 22 hour incubation
Kindly state pIC50 for each of the entries shown.
Give bare numbers, as −log10 of the molar value.

A selection of reference data follows.
- compound: "Cc1cc(-c2[nH]c3ccc(OC4CCN(C(=O)CN(C)C)CC4)cc3c2C(C)C)cc(C)n1 [Example 95]"
  pIC50: 6.38
- compound: "Cc1cc(-c2[nH]c3ccc(OCC4CCN(C(C)C)CC4)cc3c2C(C)C)cn2ncnc12 [Example 42]"
  pIC50: 6.46
- compound: "Cc1cc(-c2[nH]c3ccc(OCC4CCNCC4)cc3c2C(C)C)ccn1 [Example 156]"
  pIC50: 6.14
- compound: "Cc1cc(-c2[nH]c3ccc(O[C@H]4CCCN(C5CCOCC5)C4)cc3c2C(C)C)cn(C)c1=O [Example 40]"
  pIC50: 5.28

List pIC50 for every entry below, keeping the order given.
1. COc1ccc(-c2[nH]c3ccc(OCCC4CCNCC4)cc3c2C(C)C)cc1OC [Example 158]
2. COc1ccc(-c2[nH]c3ccc(OCC(=O)N4CCCC(CCN)C4)cc3c2C(C)C)cc1OC (centres unmarked) [Example 122]
3. Cc1cc(-c2[nH]c3ccc(O[C@H]4CCCNC4)cc3c2C(C)C)cn2ncnc12 [Example 9]

[reply]
1: 5.52; 2: 6.00; 3: 5.64

Reference for the values: patent US12030878B2
